Tested on: HT-1080
Experiment: Modulatory profiling: Alamar Blue viability, lethal compound cotreated with death modulator (EC50, AUC)
Type: cell-based
Conditions: HT-1080, modulator LNAME
Where a SMILES comes first, the peptide text is derived from it. The star is where a group is joined. Cbz = O=C(OCc1ccccc1)*

molecule	AUC HT.LNAME
CS[C@H]1SC[C@H]2C(=O)N(C)[C@@H](C(C)C)C(=O)OC[C@@H](NC(=O)c3cnc4ccccc4n3)C(=O)N[C@@H](C)C(=O)N(C)[C@@H]1C(=O)N(C)[C@@H](C(C)C)C(=O)OC[C@@H](NC(=O)c1cnc3ccccc3n1)C(=O)N[C@@H](C)C(=O)N2C	0.01178
CCOC(=O)[C@@H]1[C@@H](c2ccccc2)C(=O)CCN1NC(=O)c1ccccc1	0.003061
Nc1ccccc1NC(=O)c1ccc(CNC(=O)OCc2cccnc2)cc1	0.004204
COc1cccc2c1C(=O)c1c(O)c3c(c(O)c1C2=O)C[C@@](O)(C(=O)CO)C[C@@H]3O[C@H]1C[C@H](N)[C@H](O)[C@H](C)O1	0.006685
CC(C)C[C@@H](C=O)NC(=O)[C@H](CC(C)C)NC(=O)[C@H](CC(C)C)NC(=O)OCc1ccccc1 [MG132, reference compound] (Cbz-Leu-Leu-Leu-aldehyde)	5.1006E−05
COc1ccccc1/C=C/C1(C(=O)NC2CCCC2)CC(=O)N1c1ccc(F)cc1 (stereo not drawn)	0.03977
